Quick record: pIC50, human BChE (Homo sapiens, UniProt P06276).
On this scale, pIC50 is minus log10 of a concentration expressed in M (mol/L).

compound	pIC50
COc1ccc(/C=N/NC(=O)c2ccccc2NC(=O)c2ccccc2)cc1 [Compound 12]	4.74
NNC(=O)c1ccccc1NC(=O)c1ccccc1 [Compound 04, N-(2-(hydrazinecarbonyl)phenyl)benzamide]	6.77
O=C(Nc1ccccc1C(=O)N/N=C/c1ccc(Cl)cc1)c1ccccc1 [Compound 05]	5.91
O=C(Nc1ccccc1C(=O)N/N=C/c1ccccc1)c1ccccc1 [Compound 13]	7.00
O=C(Nc1ccccc1C(=O)N/N=C/c1ccc(O)cc1O)c1ccccc1 [Compound 10]	5.67
COC(=O)c1ccccc1NC(=O)c1ccccc1 [Compound 03, methyl-2-benzamidobenzoate]	6.68
O=C(Nc1ccccc1C(=O)N/N=C/c1ccc(Br)cc1)c1ccccc1 [Compound 06]	6.85
O=C(Nc1ccccc1C(=O)N/N=C/c1ccc([N+](=O)[O-])cc1)c1ccccc1 [Compound 08]	6.72

Tested on human BChE (Homo sapiens, UniProt P06276), the item O=C(Nc1ccccc1C(=O)N/N=C/c1ccccc1O)c1ccccc1 [Compound 11] showed pIC50 equal to 6.92

---

# targetEntity: human AChE (Homo sapiens)
# Sequence (P22303 32-614): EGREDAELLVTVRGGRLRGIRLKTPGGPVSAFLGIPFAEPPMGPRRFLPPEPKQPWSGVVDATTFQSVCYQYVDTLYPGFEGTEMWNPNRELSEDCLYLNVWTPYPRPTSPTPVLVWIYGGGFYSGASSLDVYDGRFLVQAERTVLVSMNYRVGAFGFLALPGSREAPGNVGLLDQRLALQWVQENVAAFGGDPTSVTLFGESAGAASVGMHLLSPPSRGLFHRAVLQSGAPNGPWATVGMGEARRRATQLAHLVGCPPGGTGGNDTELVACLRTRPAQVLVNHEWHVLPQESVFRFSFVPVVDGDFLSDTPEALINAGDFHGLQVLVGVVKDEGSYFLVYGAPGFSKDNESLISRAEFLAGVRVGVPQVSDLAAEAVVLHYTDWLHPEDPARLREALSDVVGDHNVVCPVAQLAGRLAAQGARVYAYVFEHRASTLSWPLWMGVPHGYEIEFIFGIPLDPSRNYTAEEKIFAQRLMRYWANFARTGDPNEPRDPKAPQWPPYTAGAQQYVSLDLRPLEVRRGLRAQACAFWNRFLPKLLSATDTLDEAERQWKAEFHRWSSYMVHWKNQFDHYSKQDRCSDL
pIC50: −log10 of the molar value.
Kind request: treat 5 as inclusive, so pIC50 at 5 or higher is T, anything lower is F.

compound	assignedCategory
COC(=O)c1ccccc1NC(=O)c1ccccc1 [Compound 03, methyl-2-benzamidobenzoate]	T

Enquiry: Hi team, for NNC(=O)c1ccccc1NC(=O)c1ccccc1 [Compound 04, N-(2-(hydrazinecarbonyl)phenyl)benzamide] , is the recorded pIC50 at or above 5?
Return: F

Enquiry: Hi team, for "O=C(Nc1ccccc1C(=O)N/N=C/c1ccc(O)cc1O)c1ccccc1" , is the recorded pIC50 at or above 5?
Return: F

Enquiry: Hi team, for "COc1ccc(/C=N/NC(=O)c2ccccc2NC(=O)c2ccccc2)cc1" , is the recorded pIC50 at or above 5?
Return: F

Enquiry: Hi team, for "O=C(Nc1ccccc1C(=O)N/N=C/c1ccc(Cl)cc1)c1ccccc1" , is the recorded pIC50 at or above 5?
Return: T

Enquiry: Hi team, for "O=C(Nc1ccccc1C(=O)N/N=C/c1ccc([N+](=O)[O-])cc1)c1ccccc1" , is the recorded pIC50 at or above 5?
Return: F

Enquiry: Hi team, for "CN(C)c1ccc(/C=N/NC(=O)c2ccccc2NC(=O)c2ccccc2)cc1" , is the recorded pIC50 at or above 5?
Return: F

Enquiry: Hi team, for "O=C(Nc1ccccc1C(=O)N/N=C/c1ccccc1O)c1ccccc1" , is the recorded pIC50 at or above 5?
Return: T

---

Quick record: pIC50, UniProtKB P22303.
On this scale, pIC50 is minus log10 of a concentration expressed in M (mol/L).

Reference set (2 entries):
recordSmiles	pIC50
O=C(Nc1ccccc1C(=O)N/N=C/c1ccc(Br)cc1)c1ccccc1	7.05
O=C(Nc1ccccc1C(=O)N/N=C/c1ccccc1)c1ccccc1	6.96

For this compound ( "CC(C)c1ccc(/C=N/NC(=O)c2ccccc2NC(=O)c2ccccc2)cc1" ), measured pIC50 is 4.64
